# assayed system: PI3Kβ (Homo sapiens)
# Construct: made in house
# Sequence (P42338 whole entry): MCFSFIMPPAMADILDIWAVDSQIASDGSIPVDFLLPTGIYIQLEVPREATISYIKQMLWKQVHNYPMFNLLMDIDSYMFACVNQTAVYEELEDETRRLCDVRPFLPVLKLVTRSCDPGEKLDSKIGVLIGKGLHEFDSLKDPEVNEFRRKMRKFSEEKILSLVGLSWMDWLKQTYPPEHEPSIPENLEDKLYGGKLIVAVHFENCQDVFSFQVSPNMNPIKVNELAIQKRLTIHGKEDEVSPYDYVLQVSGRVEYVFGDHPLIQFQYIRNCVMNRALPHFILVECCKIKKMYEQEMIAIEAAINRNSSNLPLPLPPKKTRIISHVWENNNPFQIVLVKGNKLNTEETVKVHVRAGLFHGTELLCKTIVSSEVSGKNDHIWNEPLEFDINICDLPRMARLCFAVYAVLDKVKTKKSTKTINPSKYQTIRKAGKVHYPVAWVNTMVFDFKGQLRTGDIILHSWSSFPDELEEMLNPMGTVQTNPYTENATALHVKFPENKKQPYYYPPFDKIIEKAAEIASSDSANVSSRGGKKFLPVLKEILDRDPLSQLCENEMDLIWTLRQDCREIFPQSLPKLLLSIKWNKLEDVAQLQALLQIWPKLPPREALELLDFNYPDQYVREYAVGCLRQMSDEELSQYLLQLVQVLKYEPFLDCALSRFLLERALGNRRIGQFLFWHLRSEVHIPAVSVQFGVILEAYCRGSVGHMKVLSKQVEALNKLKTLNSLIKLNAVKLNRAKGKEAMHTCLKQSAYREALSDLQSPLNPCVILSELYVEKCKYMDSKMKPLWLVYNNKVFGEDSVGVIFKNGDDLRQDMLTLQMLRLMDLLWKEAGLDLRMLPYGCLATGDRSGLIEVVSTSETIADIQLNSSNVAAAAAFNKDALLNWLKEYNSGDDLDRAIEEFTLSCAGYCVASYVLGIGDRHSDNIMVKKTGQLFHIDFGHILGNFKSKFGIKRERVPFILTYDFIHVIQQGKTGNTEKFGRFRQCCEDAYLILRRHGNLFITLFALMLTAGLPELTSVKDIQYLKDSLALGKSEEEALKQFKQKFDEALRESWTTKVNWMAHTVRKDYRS
# Sequence (P27986 whole entry partner): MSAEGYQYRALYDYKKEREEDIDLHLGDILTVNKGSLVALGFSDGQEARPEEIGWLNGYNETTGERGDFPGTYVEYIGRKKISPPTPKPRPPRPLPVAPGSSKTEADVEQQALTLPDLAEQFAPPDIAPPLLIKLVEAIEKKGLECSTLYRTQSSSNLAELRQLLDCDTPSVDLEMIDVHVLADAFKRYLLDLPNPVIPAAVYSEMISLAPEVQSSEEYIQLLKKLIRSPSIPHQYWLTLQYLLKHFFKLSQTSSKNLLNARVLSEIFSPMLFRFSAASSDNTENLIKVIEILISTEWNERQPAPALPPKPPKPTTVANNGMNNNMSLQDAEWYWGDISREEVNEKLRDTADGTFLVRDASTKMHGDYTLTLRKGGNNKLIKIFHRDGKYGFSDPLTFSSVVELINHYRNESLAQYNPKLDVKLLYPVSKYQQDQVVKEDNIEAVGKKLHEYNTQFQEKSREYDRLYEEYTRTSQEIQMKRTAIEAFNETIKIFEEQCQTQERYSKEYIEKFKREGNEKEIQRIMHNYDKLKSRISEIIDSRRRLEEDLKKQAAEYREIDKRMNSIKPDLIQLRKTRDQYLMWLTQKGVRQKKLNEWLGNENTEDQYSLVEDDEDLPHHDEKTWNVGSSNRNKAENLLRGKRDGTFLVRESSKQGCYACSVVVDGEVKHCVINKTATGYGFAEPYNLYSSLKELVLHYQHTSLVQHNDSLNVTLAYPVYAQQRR
# protocol notes: TR-FRET enzymatic activity assay, PI3Kβ
# Format: biochemical
# cond: Table 2a; same assay

test smiles: Cc1n[nH]cc1-n1c([C@@H](Nc2nc(N)nc(N)c2C#N)C2CC2)nc2c(Cl)cc(F)cc2c1=O
IC50 [nM]: 42

test smiles: C[C@H](Nc1nc(N)nc(N)c1C#N)c1nc2c(C(F)(F)F)cccc2c(=O)n1-c1cc[nH]n1
IC50 [nM]: 2

test smiles: N#Cc1c(N)nc(N)nc1N[C@H](c1nc2c(C(F)F)cc(F)cc2c(=O)n1-c1cc[nH]n1)C1CC1
IC50 [nM]: 2

test smiles: C[C@H](Nc1nc(N)nc(N)c1C#N)c1nc2c(F)c(F)ccc2c(=O)n1-c1cc[nH]n1
IC50 [nM]: 13

----------
# assayed system: PI3Kγ (Homo sapiens, UniProt P48736)
# Construct: made in house
# Sequence (P48736 whole entry): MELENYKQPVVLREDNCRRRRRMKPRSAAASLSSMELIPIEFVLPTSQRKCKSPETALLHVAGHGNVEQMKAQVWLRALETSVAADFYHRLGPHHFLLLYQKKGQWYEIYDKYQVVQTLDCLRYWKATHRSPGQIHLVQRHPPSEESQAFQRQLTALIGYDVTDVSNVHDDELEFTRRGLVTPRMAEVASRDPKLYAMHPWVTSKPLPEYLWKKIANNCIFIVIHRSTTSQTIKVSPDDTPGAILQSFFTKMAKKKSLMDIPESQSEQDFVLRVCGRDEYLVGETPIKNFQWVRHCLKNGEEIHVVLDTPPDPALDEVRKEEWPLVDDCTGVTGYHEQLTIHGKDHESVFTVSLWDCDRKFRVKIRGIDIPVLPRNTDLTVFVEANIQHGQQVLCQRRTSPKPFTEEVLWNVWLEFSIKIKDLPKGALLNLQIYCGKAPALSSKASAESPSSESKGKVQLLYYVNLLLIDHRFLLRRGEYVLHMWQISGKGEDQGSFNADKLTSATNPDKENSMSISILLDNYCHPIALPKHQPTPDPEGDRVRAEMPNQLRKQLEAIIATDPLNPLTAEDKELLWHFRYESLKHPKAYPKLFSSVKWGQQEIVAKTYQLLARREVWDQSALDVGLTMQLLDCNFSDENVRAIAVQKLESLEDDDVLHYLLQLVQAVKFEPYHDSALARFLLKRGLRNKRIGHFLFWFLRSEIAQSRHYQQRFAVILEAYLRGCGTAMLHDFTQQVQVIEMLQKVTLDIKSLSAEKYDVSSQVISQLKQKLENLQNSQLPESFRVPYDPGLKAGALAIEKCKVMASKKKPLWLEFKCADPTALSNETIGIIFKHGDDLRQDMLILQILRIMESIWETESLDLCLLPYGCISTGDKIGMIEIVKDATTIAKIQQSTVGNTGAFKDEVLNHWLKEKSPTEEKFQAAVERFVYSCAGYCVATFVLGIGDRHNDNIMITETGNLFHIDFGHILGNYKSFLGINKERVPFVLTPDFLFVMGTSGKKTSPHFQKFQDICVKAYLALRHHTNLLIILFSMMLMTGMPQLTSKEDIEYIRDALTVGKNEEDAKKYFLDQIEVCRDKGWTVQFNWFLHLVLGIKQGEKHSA
# protocol notes: TR-FRET enzymatic activity assay, PI3Kγ
# Format: biochemical
# cond: read-out: PI3Kγ IC50
pIC50: −log10 of the molar value.

compound: Nc1nc(N)c(Cl)c(N[C@H](c2nc3c(F)ccc(F)c3c(=O)n2-c2cc[nH]n2)C2CC2)n1 [Compound 11]
pIC50: < 5.00
//
compound: CC[C@H](NC(=O)c1nccnc1N)c1nc2c(Cl)ccc(Cl)c2c(=O)n1-c1cc[nH]n1 [Compound 118]
pIC50: < 5.00
//
compound: C[C@H](Nc1ncnc(N)c1C#N)c1nc2cccc(Cl)c2c(=O)n1-c1cc(C2CC2)[nH]n1 [Compound 5]
pIC50: < 5.00
//
compound: CC[C@H](Nc1ncnc2ccc(Cl)nc12)c1nc2c(Cl)ccc(Cl)c2c(=O)n1-c1cc[nH]n1 [Compound 45]
pIC50: < 5.00
//
compound: Cc1cc(-n2c([C@H](C)Nc3ncnc(N)c3C#N)nc3cccc(Cl)c3c2=O)n[nH]1 [Compound 7]
pIC50: < 5.00
//
compound: Nc1nc(N)c(Cl)c(N[C@H](c2nc3cccc(F)c3c(=O)n2-c2cc[nH]n2)C2CC2)n1 [Compound 10]
pIC50: < 5.00
//
compound: C[C@H](Nc1nc(Cl)nc2[nH]ncc12)c1nc2cccc(Cl)c2c(=O)n1-c1cc[nH]n1 [Compound 91]
pIC50: < 5.00

----------
# assayed system: PI3Kγ (Homo sapiens, UniProt P48736)
# Construct: made in house
# protocol notes: TR-FRET enzymatic activity assay, PI3Kγ
# Format: biochemical
# cond: Table 2a; same assay; read-out: PI3Kγ IC50
pIC50: −log10 of the molar value.
readout kind: pIC50

compound: C[C@H](Nc1nc(N)nc(N)c1C#N)c1nc2c(Cl)cc(F)cc2c(=O)n1-c1cc[nH]n1 [Compound 279]
reported result: 6.15
--
compound: CCC[C@H](Nc1nc(N)nc(N)c1C#N)c1nc2cccc(Cl)c2c(=O)n1-c1cn[nH]c1 [Compound 249]
reported result: 6.80
--
compound: C[C@H](Nc1nc(N)nc(N)c1C#N)c1nc2cccc(Cl)c2c(=O)n1-c1ccc[nH]1 [Compound 289]
reported result: 7.92
--
compound: C[C@H](Nc1ncnc2scc(Br)c12)c1nc2cccc(Cl)c2c(=O)n1-c1cc[nH]n1 [Compound 150]
reported result: 5.52

----------
# assayed system: PI3Kγ (Homo sapiens, UniProt P48736)
# Construct: made in house
# protocol notes: TR-FRET enzymatic activity assay, PI3Kγ
# Assay type: biochemical
# cond: Table 2; TR-FRET, 2x Km ATP, 30 minutes at 25° C.; read-out: PI3Kγ IC50
The entries below come with measured IC50 values attached.

test smiles: Cc1nc(N)nc(N[C@@H](c2ccccc2)c2nc3cccc(Cl)c3c(=O)n2-c2cc[nH]n2)c1C#N
units of measure: µM
IC50: 0.41

test smiles: N#Cc1c(N)nc(N)nc1N1CCC[C@H]1c1nc2cccc(Cl)c2c(=O)n1-c1cc[nH]n1
units of measure: µM
IC50: 0.78

test smiles: CC[C@H](Nc1nc(N)nc(N)c1C#N)c1nc2cccc(Cl)c2c(=O)n1-c1cn[nH]c1
units of measure: µM
IC50: 0.23

test smiles: N#Cc1c(Cl)nc(N)nc1N[C@H](c1nc2cccc(Cl)c2c(=O)n1-c1cc[nH]n1)C1CC1
units of measure: µM
IC50: 1.3

test smiles: CC[C@H](Nc1nc(N)nc(N)c1C#N)c1nc2cccc(C#N)c2c(=O)n1-c1cn[nH]c1
units of measure: µM
IC50: 2.5

test smiles: CC[C@H](NC(=O)c1cnn2cccnc12)c1nc2c(Cl)ccc(Cl)c2c(=O)n1-c1cn[nH]c1
units of measure: µM
IC50: 7.2

test smiles: Nc1nc(N)c(Cl)c(N[C@H](c2nc3cccc(Cl)c3c(=O)n2-c2cc[nH]n2)C2CC2)n1
units of measure: µM
IC50: 5.9

test smiles: N#Cc1c(N)nc(N)nc1N[C@H](c1nc2c(Cl)cc(F)cc2c(=O)n1-c1cc[nH]n1)C1CC1
units of measure: µM
IC50: 0.63

test smiles: C[C@H](Nc1nc(N)nc2[nH]nc(Br)c12)c1nc2cccc(Cl)c2c(=O)n1-c1cc[nH]n1
units of measure: µM
IC50: 3.8

test smiles: C[C@H](Nc1ncnc2scnc12)c1nc2cccc(Cl)c2c(=O)n1-c1n[nH]cc1Br
units of measure: µM
IC50: 0.5

test smiles: CC[C@H](Nc1ncnc2scnc12)c1nc2cccc(Br)c2c(=O)n1-c1cc[nH]n1
units of measure: µM
IC50: 0.96

test smiles: C[C@H](Nc1ncnc(N)c1C#N)c1nc2cccc(Cl)c2c(=O)n1-c1cn[nH]c1
units of measure: µM
IC50: 0.99

test smiles: CC[C@H](Nc1nc(N)nc(C)c1C#N)c1nc2c(C#N)cccc2c(=O)n1-c1cn[nH]c1
units of measure: µM
IC50: 3.8

test smiles: CC[C@H](Nc1nc(N)nc(N)c1C#N)c1nc2cccc(C#N)c2c(=O)n1-c1cc[nH]n1
units of measure: µM
IC50: 3.7

test smiles: CC[C@H](Nc1ncnc2[nH]cc(F)c12)c1nc2c(Cl)ccc(Cl)c2c(=O)n1-c1cn[nH]c1
units of measure: µM
IC50: 5.9

test smiles: Cc1nc(N)nc(N[C@H](c2nc3cccc(Cl)c3c(=O)n2-c2cc[nH]n2)C2CC2)c1C#N
units of measure: µM
IC50: 0.27

test smiles: Nc1nc(N)c(Cl)c(N[C@@H](c2ccccc2)c2nc3cccc(Cl)c3c(=O)n2-c2cc[nH]n2)n1
units of measure: µM
IC50: 4.9

test smiles: CC[C@H](Nc1nc(N)nc(N)c1C#N)c1nc2c(C)cccc2c(=O)n1-c1cn[nH]c1
units of measure: µM
IC50: 2

test smiles: CC[C@H](Nc1nc(N)nc(N)c1C#N)c1nc2ccc(F)cc2c(=O)n1-c1cc[nH]n1
units of measure: µM
IC50: 2.2

test smiles: CC[C@H](Nc1ncnc2scnc12)c1nc2cccc(Cl)c2c(=O)n1-c1n[nH]cc1Br
units of measure: µM
IC50: 1.7

test smiles: O=c1c2c(Cl)cccc2nc([C@H](CO)Nc2ncnc3scnc23)n1-c1cn[nH]c1
units of measure: µM
IC50: 1.8

test smiles: C[C@H](Nc1ncnc2scnc12)c1nc2c(Cl)ccc(Cl)c2c(=O)n1-c1n[nH]cc1Br
units of measure: µM
IC50: 9

test smiles: O=c1c2c(Cl)cccc2nc([C@@H](Nc2ncnc3scnc23)C2CC2)n1-c1cc[nH]n1
units of measure: µM
IC50: 1.3

test smiles: C[C@H](Nc1nc(N)nc(N)c1C#N)c1nc2cccc(Cl)c2c(=O)n1-c1cc[nH]n1
units of measure: µM
IC50: 0.051

test smiles: CC[C@H](Nc1nc(N)nc2[nH]nc(Br)c12)c1nc2cccc(C#N)c2c(=O)n1-c1cn[nH]c1
units of measure: µM
IC50: 9

test smiles: Cc1nc(N)nc(N[C@H](c2nc3cccc(Cl)c3c(=O)n2-c2cn[nH]c2)C2CC2)c1C#N
units of measure: µM
IC50: 0.071

test smiles: C[C@H](Nc1nc(N)nc(N)c1Cl)c1nc2cccc(Cl)c2c(=O)n1-c1cc[nH]n1
units of measure: µM
IC50: 1.2

test smiles: Nc1nc(N)c(Cl)c(N[C@H](c2nc3cccc(Cl)c3c(=O)n2-c2cn[nH]c2)C2CC2)n1
units of measure: µM
IC50: 1.7

test smiles: CC[C@H](Nc1ncnn2ccnc12)c1nc2c(Cl)ccc(Cl)c2c(=O)n1-c1cn[nH]c1
units of measure: µM
IC50: 8.7

test smiles: N#Cc1c(N)nc(N)nc1N1CCC[C@H]1c1nc2cccc(Cl)c2c(=O)n1-c1cn[nH]c1
units of measure: µM
IC50: 0.74

Source listed as patent US10308639B2.
